- experimental_system: biotinylated (prokaryotic) IL-6 (Homo sapiens, UniProt P05231)
- Sequence (P05231 30-212): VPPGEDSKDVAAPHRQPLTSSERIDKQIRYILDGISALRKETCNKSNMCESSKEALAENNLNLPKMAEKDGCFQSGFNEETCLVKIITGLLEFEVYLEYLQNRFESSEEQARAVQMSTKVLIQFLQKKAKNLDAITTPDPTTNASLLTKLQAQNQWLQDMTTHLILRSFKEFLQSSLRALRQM
- experiment_description: Surface plasmon resonance (Biacore), biotinylated IL-6 captured on streptavidin sensor chip
- Format: binding
- test_parameters: purified Fab
- Experimental: The binding kinetics of IL-6-specific Fabs that were able to cross-compete with the B-E8 antibody was assessed using surface plasmon resonance (Biacore). […] From the washing phase the off-rate (kd) was determined, while from the injection phase the on-rate (ka) was calculated using the concentration and off-rate as parameters. […]
measure_name: Rmax (RU)
Give bare numbers, in RU.

* 20A4: antagonistic IL-6-specific Fab clone, parental of 68F2 (antibody, listed as Lama glama, V domains shown) VH: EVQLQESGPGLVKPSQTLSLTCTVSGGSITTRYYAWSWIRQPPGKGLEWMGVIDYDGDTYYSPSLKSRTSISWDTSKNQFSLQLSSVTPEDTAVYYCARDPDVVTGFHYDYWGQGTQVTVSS VL: ALNFMLTQPPSVSGTLGKTVTISCAGTSSDIGGYNYVSWYQQLPGTAPKLLIHRVSTRASGIPDRFSGSKSGNTASLTISGLRSEDEANYYCASYRNFNNAVFGGGTQLTVLG | 48.2
* 24D10: antagonistic IL-6-specific Fab clone, parental of 61H7 (antibody, listed as Lama glama, V domains shown) VH: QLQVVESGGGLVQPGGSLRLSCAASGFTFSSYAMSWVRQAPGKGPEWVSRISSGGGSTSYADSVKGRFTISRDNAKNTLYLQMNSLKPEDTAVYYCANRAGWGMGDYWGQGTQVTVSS VL: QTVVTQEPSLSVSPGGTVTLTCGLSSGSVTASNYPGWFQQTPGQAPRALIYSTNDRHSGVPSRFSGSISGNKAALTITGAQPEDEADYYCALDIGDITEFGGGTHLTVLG | 40.6
* 18C9: antagonistic IL-6-specific Fab clone from immunized llama (antibody, listed as Lama glama, V domains shown) VH: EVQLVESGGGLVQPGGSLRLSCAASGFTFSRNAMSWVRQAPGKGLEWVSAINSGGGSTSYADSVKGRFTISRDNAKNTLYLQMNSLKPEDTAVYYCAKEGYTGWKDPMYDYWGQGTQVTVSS VL: LNFMLTQPSALSVTLGQTAKITCQGGSLGSRYAHWYQQKPGQAPVLVIYDDDSRPSGIPERFSGSSSGGRATLTISGAQAEDDGDYYCQSADSSGNASVFGGGTHLTVLG | 49.9
* 24E9: antagonistic IL-6-specific Fab clone from immunized llama (antibody, listed as Lama glama, V domains shown) VH: EVQLVESGGGLVQPGGSLRLSCAASGFTFSTYAMSWVRQAPGKGPEWVSRISSGGGSTNYADSVKGRFTISRDNAKKTLYLQMKSLKPEDTAVYYCANRAGWGMGDYWGQGTQVTVSS VL: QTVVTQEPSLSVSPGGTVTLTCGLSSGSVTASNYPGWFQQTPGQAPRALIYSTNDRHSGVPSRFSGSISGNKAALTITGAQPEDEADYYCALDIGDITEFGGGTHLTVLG | 41
* 18C7: antagonistic IL-6-specific Fab clone from immunized llama (antibody, listed as Lama glama, V domains shown) VH: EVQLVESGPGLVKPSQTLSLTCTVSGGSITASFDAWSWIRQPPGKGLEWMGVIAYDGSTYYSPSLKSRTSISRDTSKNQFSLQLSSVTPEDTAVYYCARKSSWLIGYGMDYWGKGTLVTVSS VL: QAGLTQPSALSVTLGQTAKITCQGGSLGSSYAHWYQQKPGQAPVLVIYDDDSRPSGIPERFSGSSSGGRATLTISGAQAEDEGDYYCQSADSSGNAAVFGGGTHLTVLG | 43.9

Continue with the next molecule.
So what's the measured Rmax for this one? 24C9: antagonistic IL-6-specific Fab clone from immunized llama (antibody, listed as Lama glama, V domains shown) VH: QVQLVESGGGLVQPGGSLRLSCAASGFTFSSYRMYWVRQPPGKGLEWVSAISAGGGSTYYGDSVKGRFTISRDNAKNTVYLQMNSLKPEDTALYYCKKSTWADGESDYWGQGTQVTVSS VL: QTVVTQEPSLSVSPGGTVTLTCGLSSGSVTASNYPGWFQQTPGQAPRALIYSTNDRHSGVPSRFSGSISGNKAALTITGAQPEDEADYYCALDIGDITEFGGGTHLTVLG 38.1
